TEST_SUMMARY: basal RPMI8226 viability, no added stimulus, profiling panel, cell-based, calcein-AM fluorescence, 48 h, PK04 Diversity Set (AID 1166);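 further: cells grown under basal conditions without added stimulus; test concentration not given here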
TEST_SETTINGS: RPMI8226 myeloma viability, higher = more signal
Please assign no (0) whenever z-score is at or above -0.4, and yes (1) whenever it is below.

// known answers, use as guide
>  <COMPOUND>
C[N+](C)(C)CCCCCCNC(=O)[C@@H]1C[C@@H]2C(=O)N3CCC[C@H]3C(=O)N2[C@@H]1c1cccc(OCCO)c1

>  <CLASS_NAME>
no (0)

$$$$
>  <COMPOUND>
COC(=O)CC1OC1[C@H](C)[C@@H](OC)C(C)C (stereo not given in full)

>  <CLASS_NAME>
no (0)

$$$$
>  <COMPOUND>
O=C1NC(=O)C2C1C=CC(C(O)Cc1ccccc1)N2Nc1ccccn1 (stereo not given)

>  <CLASS_NAME>
yes (1)

$$$$
>  <COMPOUND>
CC(CCN1CCc2nc(-c3ccccc3)c(-c3ccccc3)cc2C1)=NOC[C@@H](C)[C@H](OCc1ccccc1)C(C)C

>  <CLASS_NAME>
yes (1)

$$$$
>  <COMPOUND>
CCc1cc2c(nc1CC)CCN(CCC(C)=NO[C@@H](C)c1cc(-c3c(C)cc(C)cc3C)no1)C2

>  <CLASS_NAME>
yes (1)

$$$$

(Q) hey, is z-score for O=C1C[C@@H](O)[C@@H](O)[C@@H]2[C@@H]3C(=O)N(c4ccc(F)cc4F)C(=O)[C@@H]3CC[C@@H]12 lower than -0.4 or not?
(A) yes (1)

(Q) Is z-score strictly under -0.4 for the entry CN1C(=O)C2C=CC(C(O)c3ccc(I)cc3)N(NC(=O)OC(C)(C)C)C2C1=O (stereo not given) ?
(A) no (0)
